fraction unbound at 6 h, 5 µM values by entry
assay: in vitro; conditions: rat, plasma
Lab note: jot the number down without any unit.

COc1ccc2[nH]c([S+]([O-])Cc3ncc(C)c(OC)c3C)nc2c1 (centres unmarked) ... 0.045

Looking up `CC[C@]1(O)C[C@@H]2CN(CCc3c([nH]c4ccccc34)[C@@](C(=O)OC)(c3cc4c(cc3OC)N(C)[C@H]3[C@@](O)(C(=O)OC)[C@H](OC(C)=O)[C@]5(CC)C=CCN6CC[C@]43[C@@H]65)C2)C1` , I found its fraction unbound at 6 h, 5 µM recorded as 0.06

----------
experiment: Bidirectional transport across LLC-PK1 MOCK monolayer (Transwell); conditions: pig, LLC-PK1 MOCK cell monolayer (Transwell), pH 7.4, Recovery B-A, LLC-PK1 MOCK, 2 µM, 2 h, n = 3;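 further: compound quantified by LC-MS/MS in donor and receiver wells, efflux ratio as B-A over A-B Papp, recovery relative to initial donor amount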
property-name: recovery at 2 h, 2 µM (%)
Please respond with the number in % and leave the unit unwritten.

Looking up Cc1cc(=O)n(-c2ccccc2)n1C [Antipyrine] , I found its recovery at 2 h, 2 µM recorded as 95.2

The origin of these recorded values is paper PMC12667295.
